measured_target: Hsp90 in C. albicans (SC5314) lysate (Candida albicans, UniProt P46598)
Construct: endogenous in cells; host or cells: C. albicans SC5314 whole-cell lysate
Sequence (P46598 whole entry): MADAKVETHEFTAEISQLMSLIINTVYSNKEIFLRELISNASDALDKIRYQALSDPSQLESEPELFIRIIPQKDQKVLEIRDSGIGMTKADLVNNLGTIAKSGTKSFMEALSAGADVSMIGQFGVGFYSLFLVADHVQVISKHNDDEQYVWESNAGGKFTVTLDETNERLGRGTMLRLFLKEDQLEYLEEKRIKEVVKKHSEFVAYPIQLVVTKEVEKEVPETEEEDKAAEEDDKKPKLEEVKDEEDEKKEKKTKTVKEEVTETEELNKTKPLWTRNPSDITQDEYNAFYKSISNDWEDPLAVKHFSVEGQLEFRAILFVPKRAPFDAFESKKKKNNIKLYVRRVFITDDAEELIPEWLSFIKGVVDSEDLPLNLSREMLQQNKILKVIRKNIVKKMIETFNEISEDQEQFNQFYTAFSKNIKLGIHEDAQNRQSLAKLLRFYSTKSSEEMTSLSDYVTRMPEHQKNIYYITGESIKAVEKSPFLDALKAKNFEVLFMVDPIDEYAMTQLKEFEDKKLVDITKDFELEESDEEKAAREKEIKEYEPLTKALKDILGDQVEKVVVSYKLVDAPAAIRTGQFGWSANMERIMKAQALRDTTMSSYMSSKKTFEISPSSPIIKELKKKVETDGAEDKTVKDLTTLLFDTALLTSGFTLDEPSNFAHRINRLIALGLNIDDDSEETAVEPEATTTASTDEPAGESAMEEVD
procedure_details: biochemical
Type: binding
measurement_conditions: ratio of GdA-relative EC50 ratios, HepG2 over SC5314
Below: a set of entries, each annotated with reported HepG2/SC5314.
value_type: HepG2/SC5314

compound: COc1ccccc1CON=C1C=CC=CC2OC2CC(C)OC(=O)c2c(O)cc(O)c(Cl)c2C1 (mixture of isomers)
measured_target: Hsp90 in C. albicans (SC5314) lysate (Candida albicans, UniProt P46598)
reported_result: 1.34

compound: CC1CC2OC2C=CC=CC(=NOCc2cccc(F)c2)Cc2c(Cl)c(O)cc(O)c2C(=O)O1 (mixture of isomers)
measured_target: Hsp90 in C. albicans (SC5314) lysate (Candida albicans, UniProt P46598)
reported_result: 1.415

compound: CC1CC2OC2C=CC=CC(=NOCc2ccccc2)Cc2c(Cl)c(O)cc(O)c2C(=O)O1 (mixture of isomers)
measured_target: Hsp90 in C. albicans (SC5314) lysate (Candida albicans, UniProt P46598)
reported_result: 0.6913

* * *

System: Hsp90 in HEPG2 lysate
measurement_conditions: HepG2 lysate, 333.333 nM compound, raw
Below: a set of entries, each annotated with reported FP signal.
value_type: FP signal

molecule: C[C@@H]1C[C@@H]2O[C@@H]2/C=C\C=C\C(=NOCc2ccccc2Cl)Cc2c(Cl)c(O)cc(O)c2C(=O)O1 [compound 4]
value_type: FP signal
reported_result: 185

molecule: CC1CC2OC2C=CC=CC(=NOCc2cccc(F)c2)Cc2c(Cl)c(O)cc(O)c2C(=O)O1 (mixture of isomers) [compound 227]
value_type: FP signal
reported_result: 165

molecule: COc1ccccc1CON=C1C=CC=CC2OC2CC(C)OC(=O)c2c(O)cc(O)c(Cl)c2C1 (mixture of isomers) [compound 226]
value_type: FP signal
reported_result: 178

molecule: COc1ccc(CON=C2C=CC=CC3OC3CC(C)OC(=O)c3c(O)cc(O)cc3C2)cc1 (stereo not drawn) [CMLD013075]
value_type: FP signal
reported_result: 205

molecule: COC1=C2C[C@@H](C)C[C@H](OC)[C@H](O)[C@@H](C)/C=C(\C)[C@H](OC(N)=O)[C@@H](OC)/C=C\C=C(/C)C(=O)NC(=CC1=O)C2=O [geldanamycin, reference compound]
value_type: FP signal
reported_result: 40

molecule: CC1CC2OC2C=CC=CC(=NOCCN2CCCC2=O)Cc2c(Cl)c(O)cc(O)c2C(=O)O1 (stereo not drawn) [KF58333, reference compound]
value_type: FP signal
reported_result: 43

* * *

Below: a set of entries, each annotated with reported FP signal.
measured_target: Hsp90 in C. albicans (SC5314) lysate (Candida albicans)
Construct: endogenous in cells; host or cells: C. albicans SC5314 whole-cell lysate
procedure_details: biochemical
Assay type: binding
measurement_conditions: SC5314 lysate, 333.333 nM compound, raw
value_type: FP signal

compound: CC1CC2OC2C=CC=CC(=NOCc2ccccc2)Cc2c(Cl)c(O)cc(O)c2C(=O)O1 (mixture of isomers)
measured_target: Hsp90 in C. albicans (SC5314) lysate (Candida albicans)
reported_result: 134
--
compound: CC1CC2OC2C=CC=CC(=NOCCN2CCCC2=O)Cc2c(Cl)c(O)cc(O)c2C(=O)O1 (stereo not drawn) [KF58333, reference compound]
measured_target: Hsp90 in C. albicans (SC5314) lysate (Candida albicans)
reported_result: 35
--
compound: C[C@@H]1C[C@@H]2O[C@@H]2/C=C\C=C\C(=NOCc2ccccc2Cl)Cc2c(Cl)c(O)cc(O)c2C(=O)O1
measured_target: Hsp90 in C. albicans (SC5314) lysate (Candida albicans)
reported_result: 145
--
compound: CC1CC2OC2C=CC=CC(=NOCc2cccc(F)c2)Cc2c(Cl)c(O)cc(O)c2C(=O)O1 (mixture of isomers)
measured_target: Hsp90 in C. albicans (SC5314) lysate (Candida albicans)
reported_result: 111
--
compound: COC1=C2C[C@@H](C)C[C@H](OC)[C@H](O)[C@@H](C)/C=C(\C)[C@H](OC(N)=O)[C@@H](OC)/C=C\C=C(/C)C(=O)NC(=CC1=O)C2=O [geldanamycin, reference compound]
measured_target: Hsp90 in C. albicans (SC5314) lysate (Candida albicans)
reported_result: 33
--
compound: COc1ccc(CON=C2C=CC=CC3OC3CC(C)OC(=O)c3c(O)cc(O)c(Cl)c3C2)cc1 (mixture of isomers)
measured_target: Hsp90 in C. albicans (SC5314) lysate (Candida albicans)
reported_result: 171

* * *

System: Hsp90 in HEPG2 lysate
measurement_conditions: HepG2 lysate, 333.333 nM compound, raw

compound: CCON=C1/C=C/C=C\[C@H]2O[C@H]2C[C@@H](C)OC(=O)c2c(O)cc(O)c(Cl)c2C1 [compound 333]
measured_target: Hsp90 in HEPG2 lysate
FP signal: 35
//
compound: COc1ccc(CON=C2C=CC=CC3OC3CC(C)OC(=O)c3c(O)cc(O)c(Cl)c3C2)cc1 (mixture of isomers) [compound 224]
measured_target: Hsp90 in HEPG2 lysate
FP signal: 207
//
compound: Cc1ccc(CON=C2C=CC=CC3OC3CC(C)OC(=O)c3c(O)cc(O)c(Cl)c3C2)cc1 (mixture of isomers) [compound 218]
measured_target: Hsp90 in HEPG2 lysate
FP signal: 203
//
compound: CC1CC2OC2C=CC=CC(=NOCc2ccccc2)Cc2c(Cl)c(O)cc(O)c2C(=O)O1 (mixture of isomers) [compound 217]
measured_target: Hsp90 in HEPG2 lysate
FP signal: 126

* * *

Tested on: Hsp90 in HEPG2 lysate
measurement_conditions: HepG2 lysate, 3000 nM
Under this convention, YES denotes FP signal (raw) strictly below 50 and NO denotes FP signal (raw) at or above 50.

molecule: COc1ccccc1CON=C1C=CC=CC2OC2CC(C)OC(=O)c2c(O)cc(O)c(Cl)c2C1 (mixture of isomers)
group: YES
//
molecule: CC1CC2OC2C=CC=CC(=NOCc2cccc(F)c2)Cc2c(Cl)c(O)cc(O)c2C(=O)O1 (mixture of isomers)
group: YES
//
molecule: CC1CC2OC2C=CC=CC(=NOCc2ccccc2)Cc2c(Cl)c(O)cc(O)c2C(=O)O1 (mixture of isomers)
group: YES
//
molecule: CC1(C)CC(=O)c2c(C(F)(F)F)nn(-c3ccc(C(N)=O)c(N[C@H]4CC[C@H](OC(=O)CN)CC4)c3)c2C1
group: YES
//
molecule: CCNC(=O)c1noc(-c2cc(C(C)C)c(O)cc2O)c1-c1ccc(CN2CCOCC2)cc1 [AUY922, reference compound]
group: YES
//
molecule: C[C@@H]1C[C@@H]2O[C@@H]2/C=C\C=C\C(=NOCc2ccccc2Cl)Cc2c(Cl)c(O)cc(O)c2C(=O)O1
group: YES
//
molecule: CC1(C)CC(=O)c2c(C(F)(F)F)nn(-c3ccc(C(N)=O)c(N[C@H]4CC[C@H](O)CC4)c3)c2C1 [SNX-2112, reference compound]
group: YES
//
molecule: COc1ccc(CON=C2C=CC=CC3OC3CC(C)OC(=O)c3c(O)cc(O)c(Cl)c3C2)cc1 (mixture of isomers)
group: NO
//
molecule: COc1ccc(CON=C2C=CC=CC3OC3CC(C)OC(=O)c3c(O)cc(O)cc3C2)cc1 (stereo not drawn)
group: NO
//
molecule: Cc1ccc(CON=C2C=CC=CC3OC3CC(C)OC(=O)c3c(O)cc(O)c(Cl)c3C2)cc1 (mixture of isomers)
group: NO
//
molecule: CCON=C1/C=C/C=C\[C@H]2O[C@H]2C[C@@H](C)OC(=O)c2c(O)cc(O)c(Cl)c2C1
group: YES

* * *

Test system: Hsp90 in HEPG2 lysate
measurement_conditions: HepG2 lysate, 1.372 nM compound, raw
Below: a set of entries, each annotated with reported FP signal.
value_type: FP signal

compound: Cc1ccc(CON=C2C=CC=CC3OC3CC(C)OC(=O)c3c(O)cc(O)c(Cl)c3C2)cc1 (mixture of isomers)
value_type: FP signal
reported_result: 208
//
compound: C[C@@H]1C[C@@H]2O[C@@H]2/C=C\C=C\C(=NOCc2ccccc2Cl)Cc2c(Cl)c(O)cc(O)c2C(=O)O1
value_type: FP signal
reported_result: 204
//
compound: COc1ccc(CON=C2C=CC=CC3OC3CC(C)OC(=O)c3c(O)cc(O)c(Cl)c3C2)cc1 (mixture of isomers)
value_type: FP signal
reported_result: 209
//
compound: COc1ccccc1CON=C1C=CC=CC2OC2CC(C)OC(=O)c2c(O)cc(O)c(Cl)c2C1 (mixture of isomers)
value_type: FP signal
reported_result: 206
//
compound: CC1CC2OC2C=CC=CC(=NOCc2ccccc2)Cc2c(Cl)c(O)cc(O)c2C(=O)O1 (mixture of isomers)
value_type: FP signal
reported_result: 202
//
compound: COc1ccc(CON=C2C=CC=CC3OC3CC(C)OC(=O)c3c(O)cc(O)cc3C2)cc1 (stereo not drawn)
value_type: FP signal
reported_result: 207
//
compound: CCON=C1/C=C/C=C\[C@H]2O[C@H]2C[C@@H](C)OC(=O)c2c(O)cc(O)c(Cl)c2C1
value_type: FP signal
reported_result: 195
//
compound: CC1CC2OC2C=CC=CC(=NOCCN2CCCC2=O)Cc2c(Cl)c(O)cc(O)c2C(=O)O1 (stereo not drawn) [KF58333, reference compound]
value_type: FP signal
reported_result: 194
//
compound: CC1CC2OC2C=CC=CC(=NOCc2cccc(F)c2)Cc2c(Cl)c(O)cc(O)c2C(=O)O1 (mixture of isomers)
value_type: FP signal
reported_result: 203
